Tested on: MDA-MB-468
Experiment: phospho-S6 immunofluorescence (DAPI-normalised), per-plate z-score; higher = higher phospho-S6 signal (less pathway suppression)
Settings: co-treatment: vehicle; 24 h
Where a name gives a salt, the structure may show the parent alone.
Hi, to clarify the labels: satisfied covers phospho-S6 immunofluorescence (z-score) from 0.8 upward, not satisfied covers anything below 0.8.

Worked examples, 5 compounds total:
[[record]]
compound = "c1ccc(CC2=NCCN2)cc1 [Tolazoline (hydrochloride)] (compound 10 µM)"
assayed_target = "MDA-MB-468"
category_label = "satisfied"

[[record]]
compound = "COc1ccc(C2CC(c3ccccc3)=NN2c2ccc(S(N)(=O)=O)cc2)cc1 (configuration not stated) (compound 10 µM)"
assayed_target = "MDA-MB-468"
category_label = "not satisfied"

[[record]]
compound = "O=C(CN1C(=O)C2(CCCC2)NC[C@H]1c1cc(F)cc(F)c1)Nc1ccc2c(c1)C[C@@]1(C2)C(=O)Nc2ncccc21 [MK-3207 (Hydrochloride)] (compound 10 µM)"
assayed_target = "MDA-MB-468"
category_label = "not satisfied"

[[record]]
compound = "Cc1cc2c(cc1CC(=O)c1sccc1S(=O)(=O)Nc1onc(C)c1Cl)OCO2 [Sitaxsentan (sodium)] (compound 10 µM)"
assayed_target = "MDA-MB-468"
category_label = "not satisfied"

[[record]]
compound = "C[C@]12C=CC(=O)C=C1CC[C@H]1[C@@H]3C[C@@H](O)[C@](O)(C(=O)CO)[C@@]3(C)C[C@H](O)[C@@]12F [Triamcinolone] (compound 10 µM)"
assayed_target = "MDA-MB-468"
category_label = "satisfied"


Consider the record given below.
Does the reported phospho-S6 immunofluorescence (z-score) for Cc1c(-c2ccccc2)oc2c(C(=O)OCCN3CCCCC3)cccc2c1=O [Flavoxate (hydrochloride)] (compound 10 µM) fall at or above the 0.8 mark?
not satisfied

###

Collected phospho-S6 immunofluorescence (z-score) values appear next to each entry.
System: MDA-MB-468
Assay: phospho-S6 immunofluorescence (DAPI-normalised), per-plate z-score; higher = higher phospho-S6 signal (less pathway suppression)
Details: co-treatment: lapatinib 1 uM; 24 h
Reply with just the number.

A selection of reference data follows.
[[record]]
compound = "O=C(Nc1cc(Cl)cc(Cl)c1)[C@H]1CCCC[C@H]1C(=O)O (compound 10 µM)"
endpoint_result = 0.12

[[record]]
compound = "Cc1ccc(N(CC2=NCCN2)c2cccc(O)c2)cc1 [Phentolamine (mesylate)] (compound 10 µM)"
endpoint_result = 1.1

[[record]]
compound = "CN1[C@@H]2CC[C@H]1C[C@@H](OC(c1ccccc1)c1ccccc1)C2 [Benztropine (mesylate)] (compound 10 µM)"
endpoint_result = -1.69

[[record]]
compound = "Cc1ccccc1C(=O)Nc1ccc(C(=O)N2CCCC(O)c3cc(Cl)ccc32)c(C)c1 (centres undefined) [Tolvaptan] (compound 10 µM)"
endpoint_result = -1.6

[[record]]
compound = "NC(=O)c1ccc[n+]([O-])c1 [Nicotinamide N-oxide] (compound 10 µM)"
endpoint_result = 0.22


Item CCCCC(C)(O)C/C=C/[C@H]1[C@H](O)CC(=O)[C@@H]1CCCCCCC(=O)OC (mixture of isomers) [Misoprostol] (compound 10 µM) ; assay system MDA-MB-468; phospho-S6 immunofluorescence (z-score) reported as 0.67

Item O=C1CCc2ccc(OCCCCN3CCN(c4cccc(Cl)c4Cl)CC3)cc2N1 [Aripiprazole] (compound 10 µM) ; assay system MDA-MB-468; phospho-S6 immunofluorescence (z-score) reported as -5.16

Item CCCc1c2oc(C(=O)O)cc(=O)c2cc2c(=O)cc(C(=O)O)n(CC)c12 [Nedocromil] (compound 10 µM) ; assay system MDA-MB-468; phospho-S6 immunofluorescence (z-score) reported as -0.48

Item Cc1cc(O[C@@H](CCC(F)(F)F)c2ccc(C(=O)NCCC(=O)O)cc2)cc(C)c1-c1ccc(C(C)(C)C)cc1 [Adomeglivant] (compound 10 µM) ; assay system MDA-MB-468; phospho-S6 immunofluorescence (z-score) reported as -7.2

Item Cn1c(=O)c2c(ncn2CC(=O)O)n(C)c1=O [Acefylline] (compound 10 µM) ; assay system MDA-MB-468; phospho-S6 immunofluorescence (z-score) reported as 0.37

Item C[C@H]1C[C@H]2[C@@H]3CCC4=CC(=O)C=C[C@]4(C)[C@@]3(F)[C@@H](O)C[C@]2(C)[C@@]1(O)C(=O)CO [Betamethasone] (compound 10 µM) ; assay system MDA-MB-468; phospho-S6 immunofluorescence (z-score) reported as 1.5
